Measured hepatocyte CLint at 1 µM, listed per entry.
Assay: Intrinsic clearance in human hepatocytes assessed per million cells at 1 uM after 180 mins by LC-MS/MS analysis
Assay type: ADME, cell-based, Hepatocyte
Conditions: read-out: CLH
OUTCOME MEASURE: hepatocyte CLint at 1 µM (µL/min/1e6 cells)

[
  {
    "MOLECULE": "c1cc(-c2n[nH]c3ccc(C4CC4)cc23)cc(N2CCOCC2)n1",
    "DATA VALUE": 31
  },
  {
    "MOLECULE": "c1cnnc(-c2ccc3[nH]nc(-c4ccnc(N5CCOCC5)c4)c3c2)c1",
    "DATA VALUE": 10
  },
  {
    "MOLECULE": "CC(C)Oc1ccc2[nH]nc(-c3cc(N4CCOCC4)ncn3)c2c1",
    "DATA VALUE": 6
  },
  {
    "MOLECULE": "CC(C)Oc1ccc2[nH]nc(-c3ccnc(N4CCOCC4)c3)c2c1",
    "DATA VALUE": 22
  },
  {
    "MOLECULE": "C[C@H]1CN(c2cc(-c3n[nH]c4ccc(OC5(C)CC5)cc34)ncn2)CCO1",
    "DATA VALUE": 7
  },
  {
    "MOLECULE": "Cn1cc(-c2ccc3[nH]nc(-c4ccnc(N5CCOCC5)c4)c3c2)cn1",
    "DATA VALUE": 7
  },
  {
    "MOLECULE": "C[C@@H]1CN(c2cc(-c3n[nH]c4ccc(OC5(C)CC5)cc34)ncn2)C[C@H](C)O1 [MLi-2]",
    "DATA VALUE": 8
  },
  {
    "MOLECULE": "CC(C)Oc1ccc2[nH]nc(-c3ccnc(N4CCN(C)C(=O)C4)c3)c2c1",
    "DATA VALUE": 16
  },
  {
    "MOLECULE": "CC(C)Oc1ccc2[nH]nc(-c3ccnc(N4CCN(S(C)(=O)=O)CC4)c3)c2c1",
    "DATA VALUE": 7
  },
  {
    "MOLECULE": "c1ccc2c(-c3cc(N4CCOCC4)ncn3)n[nH]c2c1",
    "DATA VALUE": 9
  },
  {
    "MOLECULE": "CC(C)Oc1ccc2[nH]nc(-c3ccnc(N4C[C@@H](F)[C@H](F)C4)c3)c2c1",
    "DATA VALUE": 25
  },
  {
    "MOLECULE": "CC1(Oc2ccc3[nH]nc(-c4cc(N5CCOCC5)ncn4)c3c2)CC1",
    "DATA VALUE": 8
  },
  {
    "MOLECULE": "C[C@@H]1CN(c2cc(-c3n[nH]c4ccc(OC5(C)CC5)cc34)ncn2)CCO1",
    "DATA VALUE": 7
  },
  {
    "MOLECULE": "CC(C)Oc1ccc2[nH]nc(-c3ccnc(N4CCN(C)CC4)c3)c2c1",
    "DATA VALUE": 7
  },
  {
    "MOLECULE": "COc1ccc2[nH]nc(-c3ccnc(N4CCOCC4)c3)c2c1",
    "DATA VALUE": 23
  },
  {
    "MOLECULE": "O=S(=O)(c1ccc2[nH]nc(-c3ccnc(N4CCOCC4)c3)c2c1)C1CC1",
    "DATA VALUE": 7.3
  },
  {
    "MOLECULE": "CC(C)Oc1ccc2[nH]nc(-c3ccnc(N4CCC(n5cnnc5)CC4)c3)c2c1",
    "DATA VALUE": 2
  },
  {
    "MOLECULE": "c1cc(-c2n[nH]c3ccc(OC4CC4)cc23)cc(N2CCOCC2)n1",
    "DATA VALUE": 37
  }
]

Each recorded value in this set is attributed to ChEMBL document CHEMBL4007454.
